Hello, the source for this data is patent US9662318B2, in case you need it.

Biological target: M4 muscarinic receptor (Homo sapiens, UniProt P08173)
Construct: host or cells: Chinese hamster ovary cells
Test: Competition with [3H]NMS (equilibrium binding, CHO membranes)
Details: competition with [^3H]NMS, M4, experiment 1; read-out: IC50—1
measuredQuantity: pIC50
Answers are plain numbers, as −log10 of the molar value.

Input: Can you look up the measured pIC50 of CCCCOc1ccc(C(=O)OCC[N+]2(C)CCCCC2)cc1.[I-] for me?
Output: 4.36

###

Target: M5 muscarinic receptor (Homo sapiens, UniProt P08912)
Construct: host or cells: CHO (Chinese hamster ovary) cells, stably transfected
Sequence (P08912 whole entry): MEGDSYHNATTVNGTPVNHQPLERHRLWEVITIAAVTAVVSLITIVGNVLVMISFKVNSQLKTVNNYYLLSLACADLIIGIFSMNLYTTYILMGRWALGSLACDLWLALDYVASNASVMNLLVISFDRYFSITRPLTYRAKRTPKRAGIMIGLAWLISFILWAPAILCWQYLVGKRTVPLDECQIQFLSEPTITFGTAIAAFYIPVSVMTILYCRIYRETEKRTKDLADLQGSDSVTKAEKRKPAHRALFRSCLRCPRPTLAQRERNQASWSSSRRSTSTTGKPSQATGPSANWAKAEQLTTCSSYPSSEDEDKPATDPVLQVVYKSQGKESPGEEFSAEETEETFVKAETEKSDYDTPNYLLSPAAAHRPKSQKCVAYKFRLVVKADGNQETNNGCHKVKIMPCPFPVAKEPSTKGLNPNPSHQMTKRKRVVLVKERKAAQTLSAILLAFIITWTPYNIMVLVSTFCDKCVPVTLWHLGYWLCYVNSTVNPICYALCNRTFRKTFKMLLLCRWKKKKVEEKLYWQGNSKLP
Assay: biochemical
Type: binding
Settings: competition with [^3H]QNB, M5, average of 3; read-out: avg IC50
measuredQuantity: pIC50
One number for each entry, as −log10 of the molar value.

Input: Item CCCCOc1ccc(C(=O)OCC[N+]2(C)CCCCC2)cc1.[I-] with M5 muscarinic receptor (Homo sapiens, UniProt P08912) - pIC50?
Output: 5.18

###

Target: M4 muscarinic receptor (Homo sapiens, UniProt P08173)
Construct: host or cells: Chinese hamster ovary cells
Assay: biochemical
Format: binding
Settings: competition with [^3H]QNB, M4, average of 3; read-out: avg IC50
measuredQuantity: IC50 (µM)
Answers are plain numbers, in µM.

Input: Item CCCCOc1ccc(C(=O)OCC[N+]2(C)CCCCC2)cc1.[I-] [JB-D4] with M4 muscarinic receptor (Homo sapiens, UniProt P08173) - IC50?
Output: 27.1

###

Target: M4 muscarinic receptor (Homo sapiens, UniProt P08173)
Construct: host or cells: Chinese hamster ovary cells
Test: biochemical
Assay type: binding
Settings: competition with [^3H]QNB, M4
measuredQuantity: pKi
Give bare numbers, as −log10 of the molar value.

Input: Item CCCCOc1ccc(C(=O)OCC[N+]2(C)CCCCC2)cc1.[I-] with M4 muscarinic receptor (Homo sapiens, UniProt P08173) - pKi?
Output: 5.51

###

Target: M5 muscarinic receptor (Homo sapiens)
Construct: host or cells: CHO (Chinese hamster ovary) cells, stably transfected
Assay: Competition with [3H]NMS (equilibrium binding, CHO membranes)
Conditions: read-out: KI
measuredQuantity: Ki
Remember to put the unit after the number in your answer.

Input: Can you look up the measured Ki of CCCCOc1ccc(C(=O)OCC[N+]2(C)CCCCC2)cc1.[I-] for me?
Output: 2880 nM

###

Biological target: M4 muscarinic receptor (Homo sapiens, UniProt P08173)
Construct: host or cells: Chinese hamster ovary cells
Assay: Competition with [3H]NMS (equilibrium binding, CHO membranes)
Conditions: competition with [^3H]NMS, M4, experiment 2; read-out: IC50—2
measuredQuantity: IC50 (µM)
Numbers only, in µM.

Input: Can you look up the measured IC50 of CCCCOc1ccc(C(=O)OCC[N+]2(C)CCCCC2)cc1.[I-] for me?
Output: 42

###

Molecular target: M5 muscarinic receptor (Homo sapiens)
Construct: host or cells: CHO (Chinese hamster ovary) cells, stably transfected
Test: biochemical
Format: binding
Conditions: competition with [^3H]QNB, M5, experiment 1; read-out: IC50—1
measuredQuantity: IC50 (µM)
One number for each entry, in µM.

Input: Can you look up the measured IC50 of CCCCOc1ccc(C(=O)OCC[N+]2(C)CCCCC2)cc1.[I-] for me?
Output: 5.73

###

Target: M1 muscarinic receptor (Homo sapiens, UniProt P11229)
Sequence (P11229 whole entry): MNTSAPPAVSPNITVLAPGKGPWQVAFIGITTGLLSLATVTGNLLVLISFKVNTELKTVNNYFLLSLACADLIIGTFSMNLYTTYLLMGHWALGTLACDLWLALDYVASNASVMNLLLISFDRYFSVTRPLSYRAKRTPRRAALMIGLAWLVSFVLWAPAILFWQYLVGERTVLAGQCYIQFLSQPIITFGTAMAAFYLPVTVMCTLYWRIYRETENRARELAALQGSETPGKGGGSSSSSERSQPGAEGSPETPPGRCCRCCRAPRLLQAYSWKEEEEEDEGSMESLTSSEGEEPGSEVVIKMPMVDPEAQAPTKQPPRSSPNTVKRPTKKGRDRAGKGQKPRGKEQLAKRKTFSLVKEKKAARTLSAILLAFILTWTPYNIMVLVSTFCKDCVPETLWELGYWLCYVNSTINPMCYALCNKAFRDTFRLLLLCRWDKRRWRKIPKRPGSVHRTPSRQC
Experiment: Competition with [3H]NMS (equilibrium binding, CHO membranes)
Details: read-out: Binding Equilibrium Constants (expressed as pKI) (converted)
Counter-ions that a name gives are not always drawn.
Assign Ki to each entry below.
Give bare numbers, in µM.

See these solved cases before continuing.
[
  {
    "compound": "CCCCOc1ccc(C(=O)OCC[N+]2(C)CC=CCC2)cc1 (stereo not drawn) [Compound 10a]",
    "recordedMeasurement": 2.51
  },
  {
    "compound": "CCCCc1ccc(C(=O)OCCN2CC=CCC2)cc1 [Compound 9b, hydrochloride]",
    "recordedMeasurement": 7.94
  },
  {
    "compound": "CCCCc1ccc(C(=O)OCC[N+]2(C)CCCCC2)cc1 [Compound 13b]",
    "recordedMeasurement": 3.16
  },
  {
    "compound": "CCCCc1ccc(C(=O)OCC[N+]2(C)CC=CCC2)cc1 (stereo not drawn) [Compound 10b]",
    "recordedMeasurement": 2.51
  },
  {
    "compound": "CCCCOc1ccc(C(=O)OCCN2CC=CCC2)cc1 [Compound 9a, hydrochloride]",
    "recordedMeasurement": 6.31
  }
]

// next item, Ki requested
Input: Item CCCCc1ccc(C(=O)OCCN2CCCCC2)cc1 [Compound 14b] with M1 muscarinic receptor (Homo sapiens, UniProt P11229) - Ki?
Output: 3.98

###

Assign Ki to each entry below.
Target: M4 muscarinic receptor (Homo sapiens, UniProt P08173)
Construct: host or cells: Chinese hamster ovary cells
Sequence (P08173 1-479): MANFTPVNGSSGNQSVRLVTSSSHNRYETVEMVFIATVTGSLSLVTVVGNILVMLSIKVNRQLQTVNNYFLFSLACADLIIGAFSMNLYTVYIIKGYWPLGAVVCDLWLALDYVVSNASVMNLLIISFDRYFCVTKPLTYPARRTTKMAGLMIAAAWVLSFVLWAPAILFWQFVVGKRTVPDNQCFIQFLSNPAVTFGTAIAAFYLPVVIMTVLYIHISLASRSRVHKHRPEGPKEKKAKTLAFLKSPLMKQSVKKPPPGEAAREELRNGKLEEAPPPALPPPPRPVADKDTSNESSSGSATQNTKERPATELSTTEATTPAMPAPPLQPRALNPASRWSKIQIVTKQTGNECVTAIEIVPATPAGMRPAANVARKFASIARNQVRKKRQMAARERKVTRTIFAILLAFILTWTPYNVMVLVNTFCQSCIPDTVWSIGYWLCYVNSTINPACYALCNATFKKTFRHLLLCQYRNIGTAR
Test: Competition with [3H]NMS (equilibrium binding, CHO membranes)
Conditions: read-out: Binding Equilibrium Constants (expressed as pKI) (converted)
Counter-ions that a name gives are not always drawn.
Give bare numbers, in µM.

Please supply Ki for each of the following items, keeping them in order.
1. CCCCOc1ccc(C(=O)OCC[N+]2(C)CC=CCC2)cc1 (stereo not shown) [Compound 10a]
2. CCCCCCOc1ccc(C(=O)OCC[N+]2(C)CC=CCC2)cc1 (stereo not shown) [Compound 10c]
3. CCCCc1ccc(C(=O)OCC[N+]2(C)CC=CCC2)cc1 (stereo not shown) [Compound 10b]
4. CCCCc1ccc(C(=O)OCCN2CC=CCC2)cc1 [Compound 9b, hydrochloride]
5. CCCCOc1ccc(C(=O)OCCN2CC=CCC2)cc1 [Compound 9a, hydrochloride]
6. CCCCc1ccc(C(=O)OCC[N+]2(C)CCCCC2)cc1 [Compound 13b]

Output:
1: 7.94; 2: 0.398; 3: 3.98; 4: 25.1; 5: 12.6; 6: 3.98

Input: Can you look up the measured Ki of CCCCc1ccc(C(=O)OCCN2CCCCC2)cc1 [Compound 14b] for me?
Output: 9.77

###

Target: M3 muscarinic receptor (Homo sapiens, UniProt P20309)
Construct: host or cells: Chinese hamster ovary cells
Sequence (P20309 whole entry): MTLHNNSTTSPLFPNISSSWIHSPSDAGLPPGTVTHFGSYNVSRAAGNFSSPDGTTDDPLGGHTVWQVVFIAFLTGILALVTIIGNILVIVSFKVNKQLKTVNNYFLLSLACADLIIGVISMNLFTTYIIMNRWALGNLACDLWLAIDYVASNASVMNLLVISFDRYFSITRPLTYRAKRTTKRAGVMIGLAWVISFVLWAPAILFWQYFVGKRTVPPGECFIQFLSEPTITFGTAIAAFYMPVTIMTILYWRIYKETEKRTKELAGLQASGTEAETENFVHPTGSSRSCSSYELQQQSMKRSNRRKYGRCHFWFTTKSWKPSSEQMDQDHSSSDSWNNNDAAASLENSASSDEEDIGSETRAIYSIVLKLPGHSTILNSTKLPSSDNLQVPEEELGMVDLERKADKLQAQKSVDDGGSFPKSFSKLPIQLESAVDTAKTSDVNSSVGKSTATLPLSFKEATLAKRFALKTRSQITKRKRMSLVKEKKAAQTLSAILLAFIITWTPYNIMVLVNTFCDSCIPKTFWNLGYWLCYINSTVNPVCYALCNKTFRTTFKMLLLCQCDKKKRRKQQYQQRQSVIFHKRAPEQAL
Experiment: biochemical
Type: binding
Conditions: competition with [^3H]QNB, M3, experiment 2; read-out: IC50—2
measuredQuantity: pIC50
Answers are plain numbers, as −log10 of the molar value.

Input: Can you look up the measured pIC50 of CCCCOc1ccc(C(=O)OCC[N+]2(C)CCCCC2)cc1.[I-] for me?
Output: 4.69

###

Molecular target: M3 muscarinic receptor (Homo sapiens, UniProt P20309)
Construct: host or cells: Chinese hamster ovary cells
Assay: Competition with [3H]NMS (equilibrium binding, CHO membranes)
Settings: read-out: KI
measuredQuantity: Ki (µM)
One number for each entry, in µM.

Input: Can you look up the measured Ki of CCCCOc1ccc(C(=O)OCC[N+]2(C)CCCCC2)cc1.[I-] [JB-D4] for me?
Output: 3.16

###

Biological target: M5 muscarinic receptor (Homo sapiens)
Construct: host or cells: CHO (Chinese hamster ovary) cells, stably transfected
Assay: biochemical
Assay type: binding
Conditions: competition with [^3H]QNB, M5, experiment 2; read-out: IC50—2
measuredQuantity: pIC50
Numbers only, as −log10 of the molar value.

Input: Can you look up the measured pIC50 of CCCCOc1ccc(C(=O)OCC[N+]2(C)CCCCC2)cc1.[I-] for me?
Output: 5.17

###

Molecular target: M4 muscarinic receptor (Homo sapiens, UniProt P08173)
Construct: host or cells: Chinese hamster ovary cells
Sequence (P08173 1-479): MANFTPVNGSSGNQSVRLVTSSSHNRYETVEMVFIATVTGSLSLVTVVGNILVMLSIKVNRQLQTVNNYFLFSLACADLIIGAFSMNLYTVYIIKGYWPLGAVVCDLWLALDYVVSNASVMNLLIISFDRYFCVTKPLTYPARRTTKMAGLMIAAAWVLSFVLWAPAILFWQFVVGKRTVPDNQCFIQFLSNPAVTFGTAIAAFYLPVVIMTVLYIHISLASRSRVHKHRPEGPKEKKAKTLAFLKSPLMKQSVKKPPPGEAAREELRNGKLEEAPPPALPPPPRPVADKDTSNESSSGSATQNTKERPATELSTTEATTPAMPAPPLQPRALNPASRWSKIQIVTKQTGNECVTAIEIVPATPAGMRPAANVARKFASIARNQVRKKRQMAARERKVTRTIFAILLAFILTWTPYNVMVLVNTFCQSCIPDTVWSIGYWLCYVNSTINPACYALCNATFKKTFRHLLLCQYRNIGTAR
Test: biochemical
Type: binding
Details: competition with [^3H]QNB, M4, experiment 2; read-out: IC50—2
measuredQuantity: IC50 (µM)
Answers are plain numbers, in µM.

Input: Item CCCCOc1ccc(C(=O)OCC[N+]2(C)CCCCC2)cc1.[I-] with M4 muscarinic receptor (Homo sapiens, UniProt P08173) - IC50?
Output: 32.6
